- Test system: NCI-H82
- Assay Name: Small-cell-lung cancer cell proliferation inhibition assay (PrestoBlue), NCI-H82
- Type: cell-based
- Reported Conditions: Homo sapiens, cMYC amplified SCLC cells, 72 hours
Let's look at some molecules and their measured IC50.

Please review the following examples before continuing.
• Cc1cc(Nc2cc(N3CCNCC3)nc(N[C@H]3CCN(C(=O)c4cccc(Cl)c4F)C3)n2)n[nH]1 = < 1000 nM
• CCN1CCN(c2cc(Nc3cc(C)n(C(=O)C(C)(C)C)n3)nc(N[C@H]3CCN(C(=O)c4ccc(Cl)cc4F)C3)n2)CC1 = < 1000 nM
• CCN1CCN(c2cc(Nc3cc(C)nn3C(C)=O)nc(N[C@H]3CCN(C(=O)c4ccc(Cl)cc4F)C3)n2)CC1 = < 1000 nM
• CCN1CCN(c2cc(Nc3cc(C)[nH]n3)nc(N[C@H]3CCN(C(=O)c4cc(Cl)ccc4F)C3)n2)CC1 = < 1000 nM
• CCN1CCN(c2cc(Nc3cc(C)[nH]n3)nc(N[C@H]3CCN(C(=O)c4ccc(Cl)c(C(F)(F)F)c4)C3)n2)CC1 = < 1000 nM
• CCOC(=O)c1cnc(Nc2cc(N3CCN(C)CC3)nc(N[C@H]3CCN(C(=O)c4ccc(Cl)cc4F)C3)n2)s1 = < 1000 nM
• Cc1cc(Nc2cc(N3CC(N(C)C)C3)nc(N[C@H]3CCN(C(=O)c4cccc(Cl)c4F)C3)n2)n[nH]1 = < 1000 nM
• CCCC(=O)n1nc(C)cc1Nc1cc(N2CCN(CC)CC2)nc(NC2CCN(C(=O)c3cccc(Cl)c3F)CC2)n1 = < 1000 nM

Next up:
Problem: For `CCOC(=O)n1nc(C)cc1Nc1cc(N2CCN(CC)CC2)nc(NC2CCN(C(=O)c3cccc(Cl)c3F)CC2)n1` , what is its reported IC50?
Result: < 1000 nM

----------
Let's look at some compounds and their measured IC50.
- Tgt: human Aurora A (amino acids 123-401) (Homo sapiens, UniProt O14965)
- Construct: human Aurora A (amino acids 123-401) was expressed in Sf9 insect cells; GST
- Sequence (O14965 123-401): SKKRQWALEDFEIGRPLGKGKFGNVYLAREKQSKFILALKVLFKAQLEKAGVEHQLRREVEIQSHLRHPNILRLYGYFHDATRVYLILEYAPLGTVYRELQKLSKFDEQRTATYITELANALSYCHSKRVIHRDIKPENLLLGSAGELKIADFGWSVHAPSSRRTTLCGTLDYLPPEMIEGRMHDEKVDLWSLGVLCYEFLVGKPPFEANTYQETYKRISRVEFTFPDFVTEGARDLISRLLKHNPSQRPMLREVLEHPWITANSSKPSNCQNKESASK
- Assay Name: Kinase-Glo Luminescent Kinase assay, in vitro inhibition of Aurora A kinase activity
- Reported Conditions: recombinant GST-tagged Aurora A, 5.0 μM ATP, 37° C., 120 minutes

• CCN1CCN(c2cc(Nc3cc(C)[nH]n3)nc(NC3CCN(C(=O)c4cccc(Cl)c4F)C3)n2)CC1 (centres unmarked) = < 0.1 µM
• COC[C@H]1CCCN1c1cc(Nc2cc(C)[nH]n2)nc(N[C@H]2CCN(C(=O)c3cccc(Cl)c3F)C2)n1 = < 0.1 µM
• CC(=O)N1CCN(c2cc(Nc3cc(C)[nH]n3)nc(N[C@H]3CCN(C(=O)c4ccc(Cl)cc4F)C3)n2)CC1 = < 0.1 µM
• Cc1cc(Nc2cc(N3C[C@@H](C)N[C@@H](C)C3)nc(NC3CCN(C(=O)c4cccc(Cl)c4F)CC3)n2)n[nH]1 = < 0.1 µM
• CCN1CCN(c2cc(Nc3cc(C)[nH]n3)nc(N[C@H]3CCN(C(=O)c4ccc(Cl)cc4C)C3)n2)CC1 = < 0.1 µM
• CCN1CCN(c2cc(Nc3cc(C)[nH]n3)nc(N[C@H]3CCN(C(=O)c4cc(F)c(Cl)cc4F)C3)n2)CC1 = < 0.1 µM

Problem: For `Cc1cc(Nc2cc(N3CCN(C)CC3)nc(N[C@H]3CCN(Cc4cccc(Cl)c4F)C3)n2)n[nH]1` , what is its reported IC50?
Result: < 0.1 µM

Problem: For `CCN1CCN(c2cc(Nc3cc(C)[nH]n3)nc(N[C@H]3CCN(C(=O)c4ccc(Cl)c(F)c4F)C3)n2)CC1` , what is its reported IC50?
Result: < 0.1 µM

Problem: For `CCC(=O)n1nc(Nc2cc(N3CCN(CC)CC3)nc(NC3CCN(C(=O)c4cccc(Cl)c4F)CC3)n2)cc1C` , what is its reported IC50?
Result: < 0.1 µM

Problem: For `COCCN1CCN(c2cc(Nc3cc(C)[nH]n3)nc(NC3CCN(C(=O)c4cccc(Cl)c4F)CC3)n2)CC1` , what is its reported IC50?
Result: < 0.1 µM

Problem: For `Cc1cc(Nc2cc(N3CC(N(C)C)C3)nc(N[C@H]3CCN(C(=O)c4ccc(Cl)cc4F)C3)n2)n[nH]1` , what is its reported IC50?
Result: < 0.1 µM

Problem: For `COC[C@H]1CCCN1c1cc(Nc2cc(C)[nH]n2)nc(NC2CCN(C(=O)c3cccc(Cl)c3F)CC2)n1` , what is its reported IC50?
Result: < 0.1 µM

Problem: For `CCN1CCN(c2cc(Nc3cc(C)[nH]n3)nc(N[C@H]3CCN(C(=O)c4ccc(F)cc4F)C3)n2)CC1` , what is its reported IC50?
Result: < 0.1 µM

Problem: For `CCOC(=O)c1cnc(Nc2cc(N3CCN(C)CC3)nc(N[C@H]3CCN(C(=O)c4ccc(Cl)cc4F)C3)n2)s1` , what is its reported IC50?
Result: < 0.1 µM

----------
- Test system: SK-N-BE(2)
- Assay Name: Proliferation inhibition of various cancer cells (PrestoBlue), SK-N-BE(2)
- Format: cell-based
- Reported Conditions: Homo sapiens, SKNBE2; Neuroblastoma; 72 hours
- Method: The efficacies of compounds 41 and 86 of Formula (I) in inhibiting proliferation of eleven types of cancer cells were determined using PrestoBlue™ Cell Viability Reagent (ThermoFisher Scientific, USA). The eleven types of cancer cells are small cell lung cancer, non-small cell lung cancer, liver cancer, pancreatic cancer, breast cancer, colon cancer, prostate cancer, neuroblastoma, brain cancer, leukemia, and cholangiocarcinoma. […]
Measured Endpoint: IC50

Problem: Please provide the recorded IC50 for `CCN1CCN(c2cc(Nc3cc(C)[nH]n3)nc(NC3CCN(C(=O)c4cccc(Cl)c4F)CC3)n2)CC1` , tested on SK-N-BE(2).
Result: < 200 nM

Problem: Please provide the recorded IC50 for `CCN1CCN(c2cc(Nc3cc(C)[nH]n3)nc(N[C@H]3CCN(C(=O)c4ccc(Cl)cc4F)C3)n2)CC1` , tested on SK-N-BE(2).
Result: < 200 nM

----------
- Tested on: Colo205
- Assay Name: Proliferation inhibition of various cancer cells (PrestoBlue), Colo205
- Format: cell-based
- Reported Conditions: Homo sapiens, COLO 205; Colon cancer; 72 hours
pIC50: −log10 of the molar value.
Measured Endpoint: pIC50

* CCN1CCN(c2cc(Nc3cc(C)[nH]n3)nc(N[C@H]3CCN(C(=O)c4ccc(Cl)cc4F)C3)n2)CC1 [Compound 41] | > 6.00

Problem: Please provide the recorded pIC50 for CCN1CCN(c2cc(Nc3cc(C)[nH]n3)nc(NC3CCN(C(=O)c4cccc(Cl)c4F)CC3)n2)CC1 [Compound 86] , tested on Colo205.
Result: > 6.00

----------
- Tgt: human Aurora A (amino acids 123-401) (Homo sapiens)
- Construct: human Aurora A (amino acids 123-401) was expressed in Sf9 insect cells; GST
- Assay Name: Kinase-Glo Luminescent Kinase assay, in vitro inhibition of Aurora A kinase activity
- Reported Conditions: recombinant GST-tagged Aurora A, 5.0 μM ATP, 37° C., 120 minutes
Let's look at some compounds and their measured IC50.

* Cc1cc(Nc2cc(N3CC[C@H](N(C)C)C3)nc(NC3CCN(C(=O)c4cccc(Cl)c4F)CC3)n2)n[nH]1 [Compound 96] | < 100 nM

Problem: For COC1CN(c2cc(Nc3cc(C)[nH]n3)nc(N[C@H]3CCN(C(=O)c4ccc(Cl)cc4F)C3)n2)C1 [Compound 19] , what is its reported IC50?
Result: < 100 nM

Problem: For COCCN1CCN(c2cc(Nc3cc(C)[nH]n3)nc(N[C@H]3CCN(C(=O)c4ccc(Cl)cc4F)C3)n2)CC1 [Compound 13] , what is its reported IC50?
Result: < 100 nM

Problem: For CCN1CCN(c2cc(Nc3cc(C)[nH]n3)nc(N(CC)C3CCN(C(=O)c4cccc(Cl)c4F)CC3)n2)CC1 [Compound 109] , what is its reported IC50?
Result: < 100 nM

Problem: For Cc1cc(Nc2cc(N3CCN(C)CC3)nc(N[C@H]3CCN(C(=O)c4ccc(Cl)cc4F)C3)n2)n[nH]1 [Compound 36] , what is its reported IC50?
Result: < 100 nM

Problem: For Cc1cc(Nc2cc(C)[nH]n2)nc(NC2CCN(Cc3cccc(Cl)c3F)CC2)n1 [Compound 119] , what is its reported IC50?
Result: < 100 nM

Problem: For Cc1cc(Nc2cc(C)[nH]n2)nc(NC2CCN(C(=O)c3cccc(Cl)c3F)CC2)n1 [Compound 120] , what is its reported IC50?
Result: < 100 nM
